- experimental-system: Tyrosine-protein phosphatase non-receptor type 1 (Homo sapiens)
- Sequence (P18031 whole entry): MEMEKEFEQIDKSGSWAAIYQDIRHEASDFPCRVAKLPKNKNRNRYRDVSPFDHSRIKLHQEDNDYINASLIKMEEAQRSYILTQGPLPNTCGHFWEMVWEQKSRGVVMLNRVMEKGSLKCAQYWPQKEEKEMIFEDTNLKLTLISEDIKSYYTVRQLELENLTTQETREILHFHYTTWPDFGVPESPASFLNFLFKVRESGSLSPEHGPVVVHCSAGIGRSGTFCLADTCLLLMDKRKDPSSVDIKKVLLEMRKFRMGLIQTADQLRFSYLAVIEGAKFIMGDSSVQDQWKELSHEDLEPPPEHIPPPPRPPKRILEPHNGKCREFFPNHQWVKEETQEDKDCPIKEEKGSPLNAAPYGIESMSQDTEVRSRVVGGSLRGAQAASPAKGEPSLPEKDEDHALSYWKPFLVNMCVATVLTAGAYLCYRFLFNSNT
endpoint-name: IC50 (µM)
Entry rule: numbers only, all in µM.

structure=O=C(c1ccc(-c2ccc(C(=O)N3CCC4(CC3)CC(c3ccccc3)=NO4)cc2)cc1)N1CCC2(CC1)CC(c1ccccc1)=NO2 numeric_result=2.87

Let's switch to this molecule now.
Q) Query (molecule): O=C(c1ccc(-c2ccc(C(=O)N3CCC4(CC3)CC(c3cccc(F)c3)=NO4)cc2)cc1)N1CCC2(CC1)CC(c1cccc(F)c1)=NO2 ; field requested: IC50
A) 5.33

Reference source for all entries: BindingDB's records for doi:10.1111/cbdd.12587
